MEASUREMENT_TARGET: KRas^G12V (Homo sapiens, UniProt P01116, G12V)
Construct: Biotinylated KRas (corresponding to amino acids 1-169, produced at Accelegan Inc.); biotin (biotinylated); purchased Accelegan Inc
Sequence (P01116 1-169 isoform P01116-2 G12V): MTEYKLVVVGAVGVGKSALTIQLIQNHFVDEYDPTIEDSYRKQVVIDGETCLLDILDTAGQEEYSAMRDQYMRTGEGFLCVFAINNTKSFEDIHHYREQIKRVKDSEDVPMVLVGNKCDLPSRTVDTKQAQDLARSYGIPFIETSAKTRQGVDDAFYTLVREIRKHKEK
TEST_NAME: KRas binding assay (TR-FRET tracer displacement), KRas G12V
# IC50 values compiled below
ASSAY_READOUT: IC50 (nM)

Cc1cc2[nH]cnc2c(-c2ncc3c(N4CCC[C@@](C)(O)C4)nc(OCC45CCCN4CCC5)nc3c2F)c1C : 58300
Oc1cc(Cl)c(C2CC2)c(-c2ncc3c(N4CCC[C@]5(C4)C[C@@H](O)C5)nc(OCC45CCCN4CCC5)nc3c2F)c1 : 3
Cc1cc2[nH]ccc2c(-c2ncc3c(N4CCC[C@@](C)(O)C4)nc(OCC45CCCN4CCC5)nc3c2F)c1C : 4410
CCc1c(F)ccc2cc(O)cc(-c3ncc4c(N5C[C@@H]6[C@@H](C(F)(F)F)C[C@]6(CO)C5)nc(OC[C@@]56CCCN5C[C@H](F)C6)nc4c3F)c12 : 581
CCc1c(F)ccc2cc(O)cc(-c3ncc4c(N5C[C@H]6CC[C@@H](C5)[C@H]6O)nc(OC[C@@]56CCCN5C[C@H](F)C6)nc4c3F)c12 : 9

###

MEASUREMENT_TARGET: KRas^G12V (Homo sapiens, UniProt P01116, G12V)
Construct: Biotinylated KRas (corresponding to amino acids 1-169, produced at Accelegan Inc.); biotin (biotinylated); purchased Accelegan Inc
TEST_NAME: KRas binding assay (TR-FRET tracer displacement), KRas G12V
ASSAY_READOUT: IC50 (nM)

CCc1c(F)ccc2cc(O)cc(-c3ncc4c(N5CCC(CC6CCOC6)C5)nc(OC[C@@]56CCCN5C[C@H](F)C6)nc4c3F)c12 (stereo partly drawn) : 94
O[C@@H]1CCCN(c2nc(OCC34CCCN3CCC4)nc3c(F)c(-c4cccc5cccc(Cl)c45)ncc23)C1 : 902
CCc1c(F)ccc2cc(O)cc(-c3ncc4c(NCc5cc(C(=O)N(C)C)n(CC6CC(O)C6)n5)nc(OC[C@@]56CCCN5C[C@H](F)C6)nc4c3F)c12 (stereo partly drawn) : 42
O[C@@H]1C[C@H]2C[C@@H]1CN(c1nc(OC[C@@]34CCCN3C[C@H](F)C4)nc3c(F)c(-c4cccc5ccccc45)ncc13)C2 : 404
CCc1c(F)ccc2cc(O)cc(-c3ncc4c(N5CCC(C#N)CC5)nc(OC[C@@]56CCCN5C[C@H](F)C6)nc4c3F)c12 : 3

###

Test system: KRas-mediated phosphorylation of ERK in MKN1 cells
TEST_NAME: Inhibition of KRas-mediated phosphorylation of ERK (Cisbio HTRF pERK), MKN1 cells
Assay type: cell-based
APPLIED_CONDITIONS: Homo sapiens, MKN-1
# IC50 values compiled below
ASSAY_READOUT: IC50

CCc1c(F)ccc2cc(O)cc(-c3ncc4c(N5CC6CCC(CO)(C5)C6(F)F)nc(OC[C@@]56CCCN5C[C@H](F)C6)nc4c3F)c12 (stereo partly drawn) : 19 nM
CCc1c(F)ccc2cc(O)cc(-c3ncc4c(N5CC6CCC(C5)C6(O)C(F)(F)F)nc(OC[C@@]56CCCN5C[C@H](F)C6)nc4c3F)c12 (stereo partly drawn) : 55 nM
CCc1c(F)ccc2cc(O)cc(-c3ncc4c(N5CCC(C#N)CC5)nc(OC[C@@]56CCCN5C[C@H](F)C6)nc4c3F)c12 : 25 nM
CCc1c(F)ccc2cc(O)cc(-c3ncc4c(N5CCCc6nc(C(=O)N(C)C)ccc6C5)nc(OC[C@@]56CCCN5C[C@H](F)C6)nc4c3F)c12 : 18 nM
CCc1c(F)ccc2cc(O)cc(-c3ncc4c(N5CCC[C@@](C)(O)C5)nc(OCC5(CNC)CC5)nc4c3F)c12 : 123 nM
CCc1c(F)ccc2cc(O)cc(-c3ncc4c(N5CC6CCC(CO)(C6)C5)nc(OC[C@@]56CCCN5C[C@H](F)C6)nc4c3F)c12 (stereo partly drawn) : 68 nM
